Test: recombinant barcode read abundance after kanamycin selection (control-corrected) (log10(CPM+1)); higher = more efficient recombination; sequences stand for … in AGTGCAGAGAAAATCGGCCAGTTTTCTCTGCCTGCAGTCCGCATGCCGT…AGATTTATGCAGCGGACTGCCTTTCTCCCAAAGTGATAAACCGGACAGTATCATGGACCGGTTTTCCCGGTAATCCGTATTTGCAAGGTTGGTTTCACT; site = the 11-nt target;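 note: IS621 recombinase and bridge RNA in Escherichia coli cells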
# recombinant barcode read abundance (log10) >= 0.2 gives Y, anything below gives N

GGGCTCACTTGGGTTCTAACCTGTTGCCT (site GGTCCCACTAG) :: N
GGATCCACTTGGGTTCTAACCTGTTGCCT (site AGATCCACTAG) :: Y
CCTAGAGCTTGGGTTCTAACCTGTTGCCT (site CCTAGACCTAG) :: Y

(Q) Reported recombinant barcode read abundance (log10) at or above 0.2? TAGTACCCTTGGGTTCTAACCTGTTGCAA (site TAGTACCCTAT)
(A) N

(Q) Reported recombinant barcode read abundance (log10) at or above 0.2? TTCACGCCTTGGGTTCTAACCTGTTGCCT (site TTCACGCCTAG)
(A) N

(Q) Reported recombinant barcode read abundance (log10) at or above 0.2? CTCTATCCTTGGGTTCTAACCTGTTGCGT (site CTCTAACCTAC)
(A) Y

(Q) Reported recombinant barcode read abundance (log10) at or above 0.2? ATCGGAGCTTGGGTTCTAACCTGTTGCCT (site ATCGGACCTAG)
(A) N

(Q) Reported recombinant barcode read abundance (log10) at or above 0.2? ATAGGGTCTTGGGTTCTAACCTGTTGCCT (site AAAGGGTCTAG)
(A) Y

(Q) Reported recombinant barcode read abundance (log10) at or above 0.2? ACCCAGCCTTGGGTTCTAACCTGTTGCTT (site ACCCAGCCTAT)
(A) Y

(Q) Reported recombinant barcode read abundance (log10) at or above 0.2? TAGTAGTCTTGGGTTCTAACCTGTTGCTT (site TAGTAGTCTAA)
(A) Y
